study-system: COPS5 (UniProt Q92905)
Sequence (Q92905 whole entry, looked up, the tested form may be a part): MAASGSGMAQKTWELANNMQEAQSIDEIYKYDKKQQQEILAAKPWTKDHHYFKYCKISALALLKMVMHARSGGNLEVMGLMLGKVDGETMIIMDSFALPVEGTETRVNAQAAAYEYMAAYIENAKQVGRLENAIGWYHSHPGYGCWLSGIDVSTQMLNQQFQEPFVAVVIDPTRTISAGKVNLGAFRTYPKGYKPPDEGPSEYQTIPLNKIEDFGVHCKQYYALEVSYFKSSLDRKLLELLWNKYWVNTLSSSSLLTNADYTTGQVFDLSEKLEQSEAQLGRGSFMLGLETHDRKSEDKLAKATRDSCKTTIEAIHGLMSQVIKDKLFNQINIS
experiment-description: log2 ratio of Biotin-Ahx-Ub-VS probe labelling (fragment/DMSO); higher = less target engagement (more negative = stronger competition), active = hit call of the paper (q ≤ 0.05, log2 ratio ≤ -1)
experimental-context: compound concentration: 200 uM; treatment time: 3 h
Listed here: items and their measured log2 ratio of Biotin-Ahx-Ub-VS probe labelling.
Just the number, please.

Sample answers from the record:
{"columns": ["molecule", "quantitative-result"],
 "data": [
  ["O=C(CCl)N(Cc1ccsc1)C1CC1", 0.054],
  ["Cc1ccc(N2CCC(NC(=O)CCl)C2=O)cc1 (configuration not stated)", -0.0995]
]}

Input: What log2 ratio of Biotin-Ahx-Ub-VS probe labelling value was documented for this molecule, O=C(CCl)Nc1cc2c(cc1Cl)OCCCO2 ?
Output: -0.0643

Input: What log2 ratio of Biotin-Ahx-Ub-VS probe labelling value was documented for this molecule, Cc1ccc(-c2nnc(C)[nH]2)c(NC(=O)CCl)c1 ?
Output: 0.151

Input: What log2 ratio of Biotin-Ahx-Ub-VS probe labelling value was documented for this molecule, O=C(CCl)Nc1cc(Cl)ccc1C(=O)O ?
Output: 0.0271

Input: What log2 ratio of Biotin-Ahx-Ub-VS probe labelling value was documented for this molecule, O=C(CCl)N1CCc2[nH]c3ccccc3c2C1 ?
Output: -0.0163

Input: What log2 ratio of Biotin-Ahx-Ub-VS probe labelling value was documented for this molecule, Cc1cccc2nc(CCNC(=O)CCl)cn12.Cl ?
Output: -0.0623
